# assay_name: chemical genetic growth profiling, strain panel (AID 1159580);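 further: tested at 20 µM; growth read once vehicle control cultures reached saturation at 30 °C; 1 = growth at the plate median or of vehicle wells; lower values mean less growth of the strain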
# condition_set: S. cerevisiae deletion strains, growth OD, locus YOR270C, strain vph1, hits give low values
Hit rate of the full screen: of about 5,500 compounds, about 2,000 (36%) were called active. Not shown: some 18% with an inconclusive outcome. The list shows a part of the results.
readout_type: normalized growth
Field format: numeric only.

Past entries and their recorded results:
CCC(=O)O[C@H]1CCC2C3CCC4=CC(=O)CC[C@]4(C)C3CC[C@@]21C (some centres not stated) = 0.653
CS(=O)(=O)c1ccc(C2=C(c3ccccc3)C(=O)OC2)cc1 = 0.933

Query :: If you can, please state the reported normalized growth value of CN1CCc2cc3c(cc2[C@H]1C1OC(=O)c2c1ccc1c2OCO1)OCO3 (some centres not stated) .
Result :: 0.947

Query :: If you can, please state the reported normalized growth value of C[C@]12CCC(=O)C=C1CCC1C2CC[C@@]2(C)C1CC[C@@H]2O (some centres not stated) .
Result :: 0.936

Query :: If you can, please state the reported normalized growth value of `COc1cc2c(cc1OC)C(=O)OC2` .
Result :: 0.971

Query :: If you can, please state the reported normalized growth value of `CC1(C)OC(=O)NC1=O` .
Result :: 1.07

Query :: If you can, please state the reported normalized growth value of `CCCCCCCCCCCCCCCC(=O)OC/C=C(C)/C=C/C=C(C)/C=C/C1=C(C)CCCC1(C)C` .
Result :: 1.05
